Provide the reported IC50 of cytotoxicity, MDA-MB-468/hNotch3 cells, control siRNA of each item.
- Assay Target: full-length human Notch3 expressed on the cell surface (human, UniProt Q9UM47 40-2321)
- Sequence (Q9UM47 40-2321): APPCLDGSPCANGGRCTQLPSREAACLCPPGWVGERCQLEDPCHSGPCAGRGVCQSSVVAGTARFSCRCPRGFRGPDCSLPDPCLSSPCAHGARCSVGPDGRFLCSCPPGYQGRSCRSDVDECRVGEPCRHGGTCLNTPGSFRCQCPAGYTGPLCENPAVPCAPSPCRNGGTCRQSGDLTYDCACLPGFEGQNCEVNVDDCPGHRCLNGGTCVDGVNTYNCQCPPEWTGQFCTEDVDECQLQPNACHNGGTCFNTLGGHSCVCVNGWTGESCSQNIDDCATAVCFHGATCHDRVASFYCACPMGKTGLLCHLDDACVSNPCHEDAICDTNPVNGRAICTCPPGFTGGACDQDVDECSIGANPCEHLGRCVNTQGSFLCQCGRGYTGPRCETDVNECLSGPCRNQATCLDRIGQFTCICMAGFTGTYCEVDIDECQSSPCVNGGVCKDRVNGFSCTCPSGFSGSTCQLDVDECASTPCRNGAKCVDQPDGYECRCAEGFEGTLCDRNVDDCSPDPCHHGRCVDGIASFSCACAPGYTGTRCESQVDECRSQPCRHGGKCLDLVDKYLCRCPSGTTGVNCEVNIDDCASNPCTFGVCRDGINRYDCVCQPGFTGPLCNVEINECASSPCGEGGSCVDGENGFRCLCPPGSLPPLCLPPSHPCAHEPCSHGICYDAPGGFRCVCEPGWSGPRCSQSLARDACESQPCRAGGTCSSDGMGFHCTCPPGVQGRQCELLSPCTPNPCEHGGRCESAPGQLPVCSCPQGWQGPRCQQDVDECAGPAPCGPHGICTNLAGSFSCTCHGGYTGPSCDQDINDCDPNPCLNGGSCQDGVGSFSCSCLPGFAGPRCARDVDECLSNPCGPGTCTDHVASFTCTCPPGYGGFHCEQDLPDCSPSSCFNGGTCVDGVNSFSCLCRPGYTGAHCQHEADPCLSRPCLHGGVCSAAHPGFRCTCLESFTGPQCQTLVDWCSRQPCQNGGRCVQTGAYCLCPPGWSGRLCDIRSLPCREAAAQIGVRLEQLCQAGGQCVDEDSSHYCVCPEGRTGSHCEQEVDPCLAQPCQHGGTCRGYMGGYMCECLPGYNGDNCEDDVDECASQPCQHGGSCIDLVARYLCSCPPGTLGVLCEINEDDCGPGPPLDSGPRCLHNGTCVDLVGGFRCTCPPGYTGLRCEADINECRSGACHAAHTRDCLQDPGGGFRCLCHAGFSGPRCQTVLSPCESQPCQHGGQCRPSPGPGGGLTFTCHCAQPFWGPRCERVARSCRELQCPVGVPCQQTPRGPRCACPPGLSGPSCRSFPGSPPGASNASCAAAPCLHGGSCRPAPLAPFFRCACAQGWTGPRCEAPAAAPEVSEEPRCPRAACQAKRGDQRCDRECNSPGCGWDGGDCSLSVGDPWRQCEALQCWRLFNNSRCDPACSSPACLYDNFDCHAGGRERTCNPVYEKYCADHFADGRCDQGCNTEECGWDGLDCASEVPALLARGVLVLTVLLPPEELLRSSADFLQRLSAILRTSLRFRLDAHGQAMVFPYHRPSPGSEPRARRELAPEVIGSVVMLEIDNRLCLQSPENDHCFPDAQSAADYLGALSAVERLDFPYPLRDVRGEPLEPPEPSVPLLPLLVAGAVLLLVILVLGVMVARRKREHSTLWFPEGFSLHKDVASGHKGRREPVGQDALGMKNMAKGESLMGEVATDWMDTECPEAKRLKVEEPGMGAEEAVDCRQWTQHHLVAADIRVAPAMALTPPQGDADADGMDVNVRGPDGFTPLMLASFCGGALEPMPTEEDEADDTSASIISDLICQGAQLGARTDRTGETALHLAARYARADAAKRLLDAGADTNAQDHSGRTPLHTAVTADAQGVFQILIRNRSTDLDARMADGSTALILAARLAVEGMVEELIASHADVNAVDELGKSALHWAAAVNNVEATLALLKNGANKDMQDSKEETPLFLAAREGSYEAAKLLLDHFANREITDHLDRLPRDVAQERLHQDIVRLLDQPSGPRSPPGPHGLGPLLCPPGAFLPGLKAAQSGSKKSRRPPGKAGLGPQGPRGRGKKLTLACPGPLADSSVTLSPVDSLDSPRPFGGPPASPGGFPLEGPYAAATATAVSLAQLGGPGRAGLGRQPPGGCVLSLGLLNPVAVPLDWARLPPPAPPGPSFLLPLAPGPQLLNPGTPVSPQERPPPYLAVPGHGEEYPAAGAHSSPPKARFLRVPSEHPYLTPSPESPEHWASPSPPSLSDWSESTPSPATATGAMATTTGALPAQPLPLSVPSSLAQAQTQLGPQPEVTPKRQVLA
- Assay Protocol: cell-based or functional assay
Give the number; ng Ab/mL is assumed, so skip it.

Task: Suppose we examine the binder hu75-vc6780 (Notch3-75-v1913-hG1-(C)_mcValCitPABC-#112) (antibody, human IgG1, kappa, V domains shown, vc6780 linker-payload on cysteine residues after partial reduction; sites not specified, Antibody-drug conjugate of hu75) VH: EVQLVESGGGLVQPGGSLRLSCAASGYAFTDYWMTWVRQAPGKGLEWVAEISPNSGGTNFNEKFKGRFTISVDNAKNSLYLQMNSLRAEDTAVYYCARGEIRYNWFAYWGQGTLVTVSS VL: DIQMTQSPSSLSASVGDRVTITCKASQNVGNNIAWYQQKPGKAPKLLIYYASNRYTGVPSRFSGSGYGTDFTLTISSLQPEDFATYYCQRLYNSPFTFGGGTKVEIKR ; what IC50 of cytotoxicity, MDA-MB-468/hNotch3 cells, control siRNA value has been reported?
Result: 17

Task: Please look up its IC50 of cytotoxicity, MDA-MB-468/hNotch3 cells, control siRNA: hu28-vc0101 (Notch3-28-v1010-hG1-(C)_mcValCitPABC-#54) (antibody, human IgG1, kappa, V domains shown, vc0101 linker-payload on cysteine residues after partial reduction; sites not specified, Antibody-drug conjugate of hu28) VH: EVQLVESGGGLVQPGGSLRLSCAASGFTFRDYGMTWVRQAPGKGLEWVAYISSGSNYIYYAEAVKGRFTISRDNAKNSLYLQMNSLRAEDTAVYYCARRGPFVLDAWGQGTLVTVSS VL: DIQMTQSPSSLSASVGDRVTITCKASQSINRYLHWYQQKPGKAPKLLIYNANGLQTGVPSRFSGSGSGTDFTLTISSLQPEDFATYYCLQHNTWPDTFGGGTKVEIKR
Result: 3

Task: Given the entry hu28-vc6780 (Notch3-28-v1010-hG1-(C)_mcValCitPABC-#112) (antibody, human IgG1, kappa, V domains shown, vc6780 linker-payload on cysteine residues after partial reduction; sites not specified, Antibody-drug conjugate of hu28) VH: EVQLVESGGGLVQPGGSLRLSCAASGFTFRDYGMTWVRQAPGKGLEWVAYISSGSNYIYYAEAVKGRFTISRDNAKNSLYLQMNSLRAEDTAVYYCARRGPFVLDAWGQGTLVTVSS VL: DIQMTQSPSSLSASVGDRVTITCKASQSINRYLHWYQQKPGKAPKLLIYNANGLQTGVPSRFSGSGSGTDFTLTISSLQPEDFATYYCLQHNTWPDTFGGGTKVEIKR , report its measured IC50 of cytotoxicity, MDA-MB-468/hNotch3 cells, control siRNA.
Result: 2
